Tested on: P388 leukemia ip, CD2F1 mice, survival T/C
experimentalProtocol: NCI In Vivo Anticancer Drug Screen. Data for tumor model P388 Leukemia (intraperitoneal) in CD2F1 (CDF1) mice
assaySetup: endpoint: median survival time; dose: 6.25 mg/kg/injection; schedule: Q01DX009 (ip); vehicle: saline with Tween-80; higher = longer survival
Inconclusive results and toxic doses are left out.
# T/C listing for each entry below

T/C in this record for O=C1C2C3C=CC(C2C(=O)N1CCl)C1C2C(=O)N(CCl)C(=O)C2C31 (stereo not given) : 105 % of control

T/C in this record for CCCCCc1cc(O)c2c(c1)OC(C)(CCC=C(C)C)C=C2 (stereo not given) : 100 % of control

T/C in this record for "OC1(c2ccc(CCc3ccc(C4(O)C(c5ccccc5)=C(c5ccccc5)C(c5ccccc5)=C4c4ccccc4)cc3)cc2)C(c2ccccc2)=C(c2ccccc2)C(c2ccccc2)=C1c1ccccc1" : 100 % of control

T/C in this record for O=C(CC(C(=O)c1ccccc1)N1CC1)c1ccccc1 (stereo not given) : 95 % of control

T/C in this record for "N=C(N)c1ccc(-c2ccc(-c3ccc(C(=N)N)cc3)o2)cc1" : 102 % of control

* * *

# T/C listing for each entry below
System: P388 leukemia ip, CD2F1 mice, survival T/C
experimentalProtocol: NCI In Vivo Anticancer Drug Screen. Data for tumor model P388 Leukemia (intraperitoneal) in CD2F1 (CDF1) mice
assaySetup: endpoint: median survival time; dose: 120.0 mg/kg/injection; schedule: Q01DX005 (ip); vehicle: saline with Tween-80; higher = longer survival
Method: The antitumor activity of compounds was measured in mice bearing transplantable tumors. Survival or tumor size were measured and the results are expressed as the measurement made in the treated group (T) divided by the measurement made in the vehicle treated control group (C). The tumor model used in this assay is P388 Leukemia (intraperitoneal) in CD2F1 (CDF1) mice
Inconclusive results and toxic doses are left out.

Worked cases, answers included:
molecule=Cn1c2ccccc2c(=O)c2cc(NC(=O)CCCCC(=O)Nc3ccc4c(c3)c(=O)c3ccccc3n4C)ccc21 testedsystem="P388 leukemia ip, CD2F1 mice, survival T/C" testvalue="107 % of control"
molecule=O=C1Nc2ccccc2/C1=N\N=c1/scc(-c2ccccc2)n1-c1ccccc1 testedsystem="P388 leukemia ip, CD2F1 mice, survival T/C" testvalue="100 % of control"
molecule="CCOC(=O)C1CCC(=O)N1Cc1c[nH]c2ccccc12 (stereo not given)" testedsystem="P388 leukemia ip, CD2F1 mice, survival T/C" testvalue="94 % of control"
molecule="COc1cc(/C=N/N2CN(C(C)C(=O)O)B(NCCC(C)C)N=C2N)cc(OC)c1 (stereo not given)" testedsystem="P388 leukemia ip, CD2F1 mice, survival T/C" testvalue="111 % of control"

Field: next molecule
T/C in this record for "CCOC(=O)c1c(OC)c(-c2ccccc2)c(=O)n2c3ccccc3n(C)c12" : 88 % of control

* * *

Test system: P388 leukemia ip, CD2F1 mice, survival T/C
experimentalProtocol: NCI In Vivo Anticancer Drug Screen. Data for tumor model P388 Leukemia (intraperitoneal) in CD2F1 (CDF1) mice
assaySetup: endpoint: median survival time; dose: 100.0 mg/kg/injection; schedule: Q01DX001 (ip); vehicle: saline
Toxic doses and inconclusive results are not listed. How the source made its calls: active means survival T/C of 150% or more; inactive means T/C below 125% in these data.
Response enum: y (active), n (inactive)

Some solved cases for reference:
structurestring=NC(=O)C(=Nc1ccccc1)Nc1ccccc1 class=n
structurestring=Cc1cc(O)c2c(c1O)C(=O)c1cccc(O)c1C2=O class=n
structurestring=CCN(CC)C(=S)SCc1cc(C)c(O)c(C)c1 class=n

For this compound, state the assay outcome: "CCS(=O)(=O)OCCCNCCCOS(=O)(=O)CC"
y

For this compound, state the assay outcome: "Cc1ccc([Se]CCBr)cc1"
n

For this compound, state the assay outcome: "CCP(c1ccccc1)c1ccccc1"
n
